Target: bovine trypsin (Bos taurus, UniProt P00760)
Construct: purchased Sigma-Aldrich T8003
Sequence (P00760 24-246): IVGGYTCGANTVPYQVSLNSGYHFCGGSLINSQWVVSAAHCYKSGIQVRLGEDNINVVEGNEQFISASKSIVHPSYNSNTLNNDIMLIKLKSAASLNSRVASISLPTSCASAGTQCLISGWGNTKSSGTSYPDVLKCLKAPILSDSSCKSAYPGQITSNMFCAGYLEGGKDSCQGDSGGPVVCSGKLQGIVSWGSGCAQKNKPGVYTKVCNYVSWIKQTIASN
Experiment: Trypsin inhibition assay (proteolytic activity on BApNA)
Type: biochemical
Details: Concentration 200000 nM; fraction of uninhibited activity; read-out: mean (Figure 3c, dose-response, relative trypsin activity)
Protocol: The inhibition by the benzamidine derivatives against trypsin was measured using an assay probing the enzyme proteolytic activity on the substrate Nα-Benzoyl-DL-arginine-4-nitroanilide hydrochloride (BApNA). […] The absorption was measured at 410 nm in intervals of 10 sec for 15 min at 37 °C using a Beckman Coulter’s Paradigm Detection Platform (Brea, USA). […] The activity of trypsin was calculated by the hydrolysis rate of BApNA after subtraction of the background-hydrolysis rate. […]
MEASUREMENT LABEL: remaining activity at 200 µM (%)

INSERT INTO measurements (molecule, measurement_label, experimental_value) VALUES
  ('S=C=Nc1ccccc1I [Compound B, 2-iodophenyl isothiocyanate, reference compound]', 'remaining activity at 200 µM', 114);

a = N=C(N)c1ccc(CNC(=S)Nc2cccc(I)c2)cc1
b = N=C(N)c1ccc(CN)cc1 [4-Aminomethyl benzamidine, 4-aminomethyl benzamidine, reference compound]
c = N=C(N)c1ccc(CNCc2ccc(C(=O)NCCNC(=S)Nc3cccc(I)c3)cc2)cc1
d = N=C(N)c1ccc(CNC(=O)C2CCC(C(=O)NCCNC(=S)Nc3cccc(I)c3)CC2)cc1 (centres unmarked)
Req: Order by remaining activity at 200 µM, ascending. Quick reminder: the answer is the labels in the order asked.
Resp: d, c, a, b

* * *

biological target: MMP-9 (Homo sapiens, UniProt P14780); construct: purchased Sino Biological 10327-HNAH; assay: MMP-9 inhibition assay (fluorogenic peptide substrate); format: biochemical; design: scale not given here; conditions: MMP-9; concentration 243.80 µM
Sequence (P14780 107-707 limits assumed): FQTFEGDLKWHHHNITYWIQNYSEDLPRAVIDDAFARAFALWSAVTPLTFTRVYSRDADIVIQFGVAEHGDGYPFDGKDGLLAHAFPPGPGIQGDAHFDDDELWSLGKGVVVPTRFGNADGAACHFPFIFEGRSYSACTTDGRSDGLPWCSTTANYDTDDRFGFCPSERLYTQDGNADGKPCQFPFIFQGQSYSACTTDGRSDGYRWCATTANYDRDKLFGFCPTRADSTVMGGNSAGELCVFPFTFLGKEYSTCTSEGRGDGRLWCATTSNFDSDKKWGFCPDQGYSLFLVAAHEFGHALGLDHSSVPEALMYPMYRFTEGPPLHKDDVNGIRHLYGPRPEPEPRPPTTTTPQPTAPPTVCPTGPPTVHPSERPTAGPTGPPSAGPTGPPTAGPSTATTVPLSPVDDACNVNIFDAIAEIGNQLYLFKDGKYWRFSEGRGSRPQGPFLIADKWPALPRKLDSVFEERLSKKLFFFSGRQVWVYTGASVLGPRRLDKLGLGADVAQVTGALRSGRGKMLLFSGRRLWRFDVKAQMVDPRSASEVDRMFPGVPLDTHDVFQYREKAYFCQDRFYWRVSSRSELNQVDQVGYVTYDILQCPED
MEASUREMENT LABEL: remaining enzyme activity (% of control)

Completed entries (count: 2):
INSERT INTO measurements (molecule, experimental_value) VALUES
  ('Cc1cc(=O)[nH]c(-n2nc(C)c(CCC(=O)NCCCCCCCCNC(=O)c3cncc(O)c3)c2C)n1 [693+828 Linker 4]', 52.96),
  ('O=C(CNC(=O)NC12CC3CC(CC(C3)C1)C2)NCCSCC(=O)NCc1c[nH]nn1 [66+787 Linker 24]', 81.70);

1 = Cc1cc(=O)[nH]c(-n2nc(C)c(CCC(=O)NCCSCC(=O)NCc3c[nH]nn3)c2C)n1 [693+787 Linker 24]
2 = O=C(CNC(=O)NC12CC3CC(CC(C3)C1)C2)NCc1c[nH]nn1 [66+787 Linker 1]
Req: Just tell me: smaller remaining enzyme activity (% of control) value, 1 or 2 ? Label of pick, please.
Resp: 1

* * *

biological target: bovine carbonic anhydrase II (CAII) (Bos taurus)
Sequence (P00921 whole entry): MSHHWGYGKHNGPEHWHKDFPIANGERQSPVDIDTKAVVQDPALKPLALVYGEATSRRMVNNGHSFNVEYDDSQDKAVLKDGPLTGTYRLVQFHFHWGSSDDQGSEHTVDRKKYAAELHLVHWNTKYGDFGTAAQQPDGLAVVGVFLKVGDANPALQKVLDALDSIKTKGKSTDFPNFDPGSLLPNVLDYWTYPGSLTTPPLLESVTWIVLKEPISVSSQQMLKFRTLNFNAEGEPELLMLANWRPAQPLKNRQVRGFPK
MEASUREMENT LABEL: IC50 (µM)
The figure you give is taken to be in µM; do not add the unit.

Req: GET /values?readout=IC50&system=bovine carbonic anhydrase II (CAII) (Bos taurus)&item= NS(=O)(=O)c1ccc(NC(=O)COc2ccccc2OCC(=O)NCCNC(=O)/C=C/c2ccc(-c3ccccc3C(F)(F)F)o2)cc1
Resp: 0.67

* * *

target: MMP-2 (Homo sapiens, UniProt P08253); construct: purchased Sino Biological 10082-HNAH; assay: MMP-2 inhibition assay (fluorogenic peptide substrate); type: biochemical; conditions: MMP-2; concentration 1.95 µM
Sequence (P08253 110-660): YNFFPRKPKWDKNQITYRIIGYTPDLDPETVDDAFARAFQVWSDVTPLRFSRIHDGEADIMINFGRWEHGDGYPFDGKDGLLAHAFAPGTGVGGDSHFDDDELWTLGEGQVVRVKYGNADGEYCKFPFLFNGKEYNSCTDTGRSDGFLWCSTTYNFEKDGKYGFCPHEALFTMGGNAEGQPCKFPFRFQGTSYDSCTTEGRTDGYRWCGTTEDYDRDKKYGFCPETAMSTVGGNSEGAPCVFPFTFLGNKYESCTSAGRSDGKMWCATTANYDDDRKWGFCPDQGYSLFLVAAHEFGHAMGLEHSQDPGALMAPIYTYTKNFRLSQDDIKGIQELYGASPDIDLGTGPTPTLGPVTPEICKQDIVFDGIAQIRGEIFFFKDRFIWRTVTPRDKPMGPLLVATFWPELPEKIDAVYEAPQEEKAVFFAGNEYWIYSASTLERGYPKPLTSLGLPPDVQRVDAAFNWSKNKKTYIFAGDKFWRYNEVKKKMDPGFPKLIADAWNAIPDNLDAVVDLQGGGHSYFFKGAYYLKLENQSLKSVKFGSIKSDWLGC
MEASUREMENT LABEL: remaining activity (%)

INSERT INTO results (molecule, experimental_value) VALUES
  ('Cc1cc(=O)[nH]c(-n2nc(C)c(CCC(=O)NCCOCCOCCNC(=O)CCC(=O)NCc3c[nH]nn3)c2C)n1 [693+787 Linker 10]', 94.03),
  ('O=C(CNC(=O)NC12CC3CC(CC(C3)C1)C2)NCc1c[nH]nn1 [66+787 Linker 1]', 98.93),
  ('Cc1cc(=O)[nH]c(-n2nc(C)c(CCC(=O)NCCNC(=O)CC(=O)C=CCCCCNC(=O)c3cnc4c(c3)nc(O)n4C)c2C)n1 [693+826 Linker 12]', 90.36),
  ('Cc1cc(=O)[nH]c(-n2nc(C)c(CCC(=O)NCCNC(=O)CSCCNC(=O)c3cncc(O)c3)c2C)n1 [693+828 Linker 24]', 86.92),
  ('Cc1cc(=O)[nH]c(-n2nc(C)c(CCC(=O)NCc3c[nH]nn3)c2C)n1 [693+787 Linker 1]', 92.82),
  ('Cc1cc(=O)[nH]c(-n2nc(C)c(CCC(=O)NCCOCCOCCNC(=O)c3cnc4c(c3)nc(O)n4C)c2C)n1 [693+826 Linker 10]', 91.10),
  ('Cn1c(O)nc2cc(C(=O)NCCSCC(=O)NCC34CC5CC(CC(C5)C3)C4)cnc21 [66+826 Linker 24]', 101.91),
  ('O=C(C=CCCCCNC(=O)c1cncc(O)c1)CC(=O)NCC12CC3CC(CC(C3)C1)C2 [66+828 Linker 12]', 94.73),
  ('Cn1c(O)nc2cc(C(=O)NCC34CC5CC(CC(C5)C3)C4)cnc21 [66+826 Linker 1]', 99.61),
  ('Cc1cc(=O)[nH]c(-n2nc(C)c(CCC(=O)NCCSCC(=O)NCCNC(=O)c3cnc4c(c3)nc(O)n4C)c2C)n1 [693+826 Linker 24]', 93.80),
  ('Cc1cc(=O)[nH]c(-n2nc(C)c(CCC(=O)NCCCCCCCCNC(=O)c3cncc(O)c3)c2C)n1 [693+828 Linker 4]', 99.37),
  ('O=C(CCCCCCC(=O)NCC12CC3CC(CC(C3)C1)C2)NCc1c[nH]nn1 [66+787 Linker 4]', 79.19),
  ('O=C(CNC(=O)NC12CC3CC(CC(C3)C1)C2)NCCCCCCCCNC(=O)c1cncc(O)c1 [66+828 Linker 4]', 95.05),
  ('Cc1cc(=O)[nH]c(-n2nc(C)c(CCC(=O)NCCOCCOCCNC(=O)c3cncc(O)c3)c2C)n1 [693+828 Linker 10]', 93.57),
  ('Cn1c(O)nc2cc(C(=O)NCCOCCOCCNC(=O)CNC(=O)NC34CC5CC(CC(C5)C3)C4)cnc21 [66+826 Linker 10]', 99.57),
  ('O=C(CNC(=O)NC12CC3CC(CC(C3)C1)C2)NCCSCC(=O)NCc1c[nH]nn1 [66+787 Linker 24]', 101.35),
  ('Cn1c(O)nc2cc(C(=O)NCCCC/C=C/C(=O)CC(=O)NCC34CC5CC(CC(C5)C3)C4)cnc21 [66+826 Linker 12]', 102.06),
  ('Cn1c(O)nc2cc(C(=O)NCCCCCCCCNC(=O)CNC(=O)NC34CC5CC(CC(C5)C3)C4)cnc21 [66+826 Linker 4]', 98.21),
  ('Cc1cc(=O)[nH]c(-n2nc(C)c(CCC(=O)NCCCCCCCCNC(=O)c3cnc4c(c3)nc(O)n4C)c2C)n1 [693+826 Linker 4]', 95.29),
  ('Cc1cc(=O)[nH]c(-n2nc(C)c(CCC(=O)NCCNC(=O)c3cnc4c(c3)nc(O)n4C)c2C)n1 [693+826 Linker 1]', 97.44),
  ('Cc1cc(=O)[nH]c(-n2nc(C)c(CCC(=O)NCCSCC(=O)NCc3c[nH]nn3)c2C)n1 [693+787 Linker 24]', 81.72),
  ('Cc1cc(=O)[nH]c(-n2nc(C)c(CCC(=O)NCCCCCCCCNC(=O)CCC(=O)NCc3c[nH]nn3)c2C)n1 [693+787 Linker 4]', 90.86);
